Documented max response across a set of compounds
Assay: qHTS assay for small molecule antagonists of peroxisome proliferator-activated receptor delta signaling (AID 588535);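 note: cells co-treated with a PPAR-delta agonist as stimulator during compound exposure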
Conditions: HEK293T PPARd-UAS-bla, beta-lactamase FRET ratio, 18 h; 460 nm channel
Results filed as inconclusive are left out.
Express the result in % but write the number alone.

| compound | max response [%] |
| --- | --- |
| COCC(=O)N(c1c(C)cccc1C)C(C)C(=O)OC (stereo unspecified) | -19 |

We now examine a further compound.
Task: Recorded max response of "CNC(=O)Oc1cccc2ccccc12" , please.
Result: 25.4

* * *

Experiment: Primary qHTS to identify inhibitors of SARS-CoV-2 cell entry (AID 1645846); note: nearly all actives have a fitted effect of over 45% in size
Settings: SARS-CoV-2 pseudovirus cell entry assay, luminescence; series mostly up to 57.1 µM
Inconclusive results are not listed. The source made the active and inactive calls. Calls follow the shape of the full dose curve.
reported metric: outcome

| compound | reported metric | reported measurement |
| --- | --- | --- |
| COc1ccc(C(=O)N2CCCC2=O)cc1 | outcome | inactive |
| NS(=O)(=O)c1ccc(N2CCCCS2(=O)=O)cc1 | outcome | inactive |
| CCOc1cc(N)c(Cl)cc1C(=O)NCC1CN(Cc2ccc(F)cc2)CCO1 (stereo unspecified) | outcome | inactive |
| Nc1ccc(N=Nc2ccccc2)c(N)n1 | outcome | inactive |
| N=C(N)c1ccc2cc(OC(=O)c3ccc(N=C(N)N)cc3)ccc2c1 | outcome | inactive |

Task: Recorded outcome of "O=C(O)CCC(=O)Nc1ccc(S(=O)(=O)Nc2nccs2)cc1" , please.
Result: inactive

* * *

Experiment: Cell Viability - HUV-EC-C (AID 542);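 note: cells exposed to compound for 40 hours; nearly all actives have a fitted effect of over 35% in size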
Details: HUV-EC-C endothelial cell viability, qHTS; series mostly up to 92.2 µM
Records with an inconclusive call do not appear. Calls of active or inactive are those of the source. Calls follow the shape of the dose curve; as a rule, active = well fitted cell-killing curve with a large enough effect; inconclusive = small, poorly fitted or top-dose-only effect, or effect the other way; inactive = flat fitted curve, though single readings scatter.
Please state which outcome applies, choosing from 1 (yes) (active), 0 (no) (inactive)

Previously resolved entries follow.
| chem smiles | group |
| --- | --- |
| Oc1c(Br)cc(Br)cc1Br | 0 (no) |
| CCCCCCCCCCCC[N+](C)(C)CCOc1ccccc1 | 1 (yes) |
| CNC(=O)Oc1cccc2ccccc12 | 0 (no) |
| COP(=O)(OC)OC=C(Cl)Cl | 0 (no) |

# evaluate next
Task: Which outcome was entered for the compound "CN(C)C(=S)SSC(=S)N(C)C" in this test?
Result: 1 (yes)

* * *

Test: Primary qHTS for inhibitors of MERS-S pseudo-typed particle cell entry (AID 1479149); note: nearly all actives have a fitted effect of over 60% in size
Conditions: MERS-S pseudotyped particle entry, luciferase; series mostly up to 57.1 µM
Inconclusive results are not listed. Active and inactive are the calls of the source. The call rests on the fitted dose curve.
Please state which outcome applies, choosing from True = active, False = inactive

Previously resolved entries follow.
| molecule | group |
| --- | --- |
| NC1=NCC2c3ccccc3Cc3ccccc3N12 (stereo not drawn) | False |
| CCCCCCCCCCCCCCCC[n+]1ccccc1 | True |

Task: Which outcome was entered for the molecule "C#C[C@]1(O)CC[C@H]2[C@@H]3[C@H](C)CC4=C(CCC(=O)C4)[C@H]3CC[C@@]21C" in this test?
Result: False

* * *

Test: qHTS for Inhibitors of the Functional Ribonucleoprotein Complex (vRNP) of Lassa (LASV) Arenavirus: LASV Primary Screen - GLuc reporter signal (AID 1347082); note: nearly all actives have a fitted effect of over 60% in size
Settings: LASV minigenome vRNP, Gaussia luciferase reporter; series mostly up to 57.5 µM
Results filed as inconclusive are left out. Active and inactive are the calls of the source. The call rests on the fitted dose curve; tested in HEK293 reporter line.
Please state which outcome applies, choosing from label 1 = active, label 0 = inactive

Previously resolved entries follow.
| compound | group |
| --- | --- |
| CN(C)CCOC(c1ccccc1)c1ccccc1 | label 0 |
| O=C(CCCN1CCN(c2ccc(F)cc2)CC1)NC1c2ccccc2CSc2ccccc21 (stereo unspecified) | label 1 |
| CCn1ccnc1CC1COc2ccccc2O1 (stereo unspecified) | label 0 |
| COc1cc(C[C@@H](C)N)c(OC)cc1Br | label 0 |
| CCN(CC)CC(=O)OCC(=O)[C@@]1(O)CC[C@H]2[C@@H]3CCC4=CC(=O)CC[C@]4(C)[C@H]3[C@@H](O)C[C@@]21C | label 0 |

# evaluate next
Task: Which outcome was entered for the compound "c1ccc2c(c1)CCc1ccccc1N2" in this test?
Result: label 0

* * *

Documented activity change, negative = inhibition across a set of molecules
Experiment: Primary qHTS to identify inhibitors of SARS-CoV-2 cell entry (AID 1645846); note: nearly all actives have a fitted effect of over 45% in size
Settings: SARS-CoV-2 pseudovirus cell entry assay, luminescence; at 57.1 µM (top of the series) unless noted
Results filed as inconclusive are left out.
Express the result in % but write the number alone.

Task: Recorded activity change, negative = inhibition of "OC[C@H]1O[C@@H](O[C@@H]2[C@@H](CO)O[C@](O)(CO)[C@H]2O)[C@H](O)[C@@H](O)[C@H]1O" , please.
Result: -4.13

Task: Recorded activity change, negative = inhibition of "COc1cc(NS(=O)(=O)c2ccc(N)cc2)nc(OC)n1" , please.
Result: 2.7

Task: Recorded activity change, negative = inhibition of "N=C(N)c1ccc2cc(OC(=O)c3ccc(N=C(N)N)cc3)ccc2c1" , please.
Result: -3.1

Task: Recorded activity change, negative = inhibition of NC(CSCC(=O)O)C(=O)O (stereo not drawn) , please.
Result: 0.853

Task: Recorded activity change, negative = inhibition of "CC(C)c1cc2c(cc1S(=O)(=O)O)[C@@]1(C)CCC[C@@](C)(C(=O)O)[C@@H]1CC2" , please.
Result: -22.9

Task: Recorded activity change, negative = inhibition of COc1ccnc2c1CCCCC2S(=O)c1nc2ccccc2[nH]1 (stereo not drawn) , please.
Result: -18.8

Task: Recorded activity change, negative = inhibition of "CN(C)CC[C@@H](c1ccc(Cl)cc1)c1ccccn1" , please.
Result: 0.546

Task: Recorded activity change, negative = inhibition of "NS(=O)(=O)c1cc2c(cc1Cl)NC(CSCc1ccccc1)=NS2(=O)=O" , please.
Result: -3.7

Task: Recorded activity change, negative = inhibition of "NCCNC(=O)c1ccc(Cl)cn1" , please.
Result: -12.8

Task: Recorded activity change, negative = inhibition of "O=C(O)CNC(=O)c1ccccc1I" , please.
Result: -21.9

Task: Recorded activity change, negative = inhibition of "CCCCc1ccc2nc(NC(=O)OC)[nH]c2c1" , please.
Result: -63.3

* * *

Test: Primary qHTS to identify inhibitors of SARS-CoV-2 cell entry (AID 1645846); note: nearly all actives have a fitted effect of over 45% in size
Settings: SARS-CoV-2 pseudovirus cell entry assay, luminescence; at 57.1 µM (top of the series) unless noted
Inconclusive results are not listed.
satisfied means recorded activity change, negative = inhibition is -10% or above; not satisfied means it is below -10%.

Task: // inclusive: activity change, negative = inhibition at least -10%? input: "Cc1cc(C(C)(C)C)cc(C)c1CC1=NCCN1"
Result: not satisfied

Task: // inclusive: activity change, negative = inhibition at least -10%? input: "Clc1ccc(Nc2nnc(Cc3ccncc3)c3ccccc23)cc1"
Result: satisfied

* * *

Tested on: CP297
Test: qHTS profiling for inhibitors of Plasmodium falciparum proliferation (AID 504749); note: nearly all actives have a fitted effect of over 60% in size; note: potency is the fitted concentration of half-maximal effect
Settings: P. falciparum in erythrocytes, SYBR Green DNA, 72 h; series mostly up to 28.7 µM
Inconclusive results are not listed. Calls of active or inactive are those of the source. Calls follow the shape of the dose curve; as a rule, active = well fitted inhibition curve with a large enough effect; inconclusive = small, poorly fitted or top-dose-only effect; inactive = flat fitted curve, though single readings scatter.

| compound | assayed target | Potency |
| --- | --- | --- |
| CNC(=O)NC(O)C(Cl)(Cl)Cl (stereo not drawn) | CP297 | inactive |
| C[C@]12C=CC(=O)C=C1CC[C@@H]1[C@@H]2CC[C@@]2(C)[C@H]1CC[C@]2(C)O | CP297 | 19 µM (active) |
| CC[C@]1(O)CC[C@H]2[C@@H]3CCC4=CCCC[C@@H]4[C@H]3CC[C@@]21C | CP297 | inactive |

* * *

Assay: Primary qHTS for Vero E6 cytotoxicity: counterscreen for inhibitors of SARS-S pseudo-typed particle cell entry (AID 1479150)
Conditions: cell viability; series mostly up to 57.1 µM
Inconclusive results are not listed. Activity calls are given as the source filed them. Calls follow the shape of the full dose curve.
reported metric: outcome

Some solved cases for reference:
| molecule | outcome |
| --- | --- |
| CCN(CC)C(=O)c1cccc(C)c1 | inactive |
| CCOC(=O)c1ccc(OC(=O)CCCCCN=C(N)N)cc1 | inactive |
| O=C1CC2(CCCC2)CC(=O)N1CCCCN1CCN(c2ncccn2)CC1 | inactive |
| CN1[C@@H]2CC[C@H]1CC(NC(=O)n1c(=O)[nH]c3ccccc31)C2 (stereo partly specified) | inactive |
| CCCCN(CCN(CCCC)C(=O)N1CCOCC1)C(=O)N1CCOCC1 | inactive |

We now examine a further molecule.
Task: Recorded outcome of "O=C1O[C@H]([C@@H](O)CO)C(O)=C1O" , please.
Result: inactive

* * *

System: PC26
Assay: qHTS profiling for inhibitors of Plasmodium falciparum proliferation (AID 504749); note: nearly all actives have a fitted effect of over 60% in size
Settings: P. falciparum in erythrocytes, SYBR Green DNA, 72 h; series mostly up to 28.7 µM
Results filed as inconclusive are left out. Activity calls are given as the source filed them. Calls follow the shape of the dose curve; as a rule, active = well fitted inhibition curve with a large enough effect; inconclusive = small, poorly fitted or top-dose-only effect; inactive = flat fitted curve, though single readings scatter.
Please state which outcome applies, choosing from active, inactive

Previously resolved entries follow.
| chem smiles | group |
| --- | --- |
| C#C[C@]1(O)CC[C@H]2[C@@H]3CCC4=CC(=O)CCC4=C3C=C[C@@]21CC | active |
| Cc1ncc2n1-c1ccc(Cl)cc1C(c1ccccc1F)=NC2 | inactive |
| c1cc2c(c(N3CCNCC3)c1)OCCO2 | inactive |
| O=c1n(Cl)c(=O)n(Cl)c(=O)n1Cl | inactive |
| NCc1cccnc1 | inactive |
| COP(=O)(OC)OC=C(Cl)Cl | inactive |
| CN1C(=O)CN=C(c2ccccc2)c2cc([N+](=O)[O-])ccc21 | inactive |
| O=C(O)c1nn(Cc2ccc(Cl)cc2Cl)c2ccccc12 | inactive |

# evaluate next
Task: Which outcome was entered for the molecule "NC(=O)CN1CCCC1=O" in this test?
Result: inactive
